src = patent US20140066498A1

System: KB (human cancer cell)
Test: Cytotoxicity assay against KB cells in vitro
Assay type: cell-based
Settings: NA@20 given for inactive
So I've got a bunch of compounds here, and I need their EC50 values.
Give bare numbers, in µM.

// solved cases for EC50 follow
{"compound": "C=C(CC[C@@H](C)[C@H]1CC[C@H]2C3=C(C(=O)C[C@]12C)[C@@]1(C)CCC(=O)[C@@H](C)[C@@H]1CC3=O)C(C)C(=O)O (some centres unmarked) [Compound I-11, zhankuic acid A]", "measured.parameter": "EC50", "output.unit": "µM", "measured.result": 3}
{"compound": "C=C(CC[C@@H](C)[C@H]1CC[C@H]2C3=C(C(=O)C[C@]12C)[C@@]1(C)CC[C@@H](O)[C@@H](C)[C@@H]1CC3=O)C(C)C(=O)O (some centres unmarked) [Compound I-12, zhankuic acid B]", "measured.parameter": "EC50", "output.unit": "µM", "measured.result": 7.3}

Dear colleague, could you please provide EC50 for the compounds listed below?
1. C=C(CC[C@@H](C)[C@H]1CC[C@H]2C3=C(C(=O)[C@H](O)[C@]12C)[C@@]1(C)CC[C@@H](O)[C@@H](C)[C@@H]1CC3=O)C(C)C(=O)O (some centres unmarked) [Compound I-13, zhankuic acid C]
2. C=C(CC[C@@H](C)[C@H]1CC[C@H]2C3=C(C(=O)C[C@]12C)[C@@]1(C)CCC(=O)[C@@H](C)[C@@H]1CC3)C(C)C(=O)O (some centres unmarked) [Compound I-15, antcin A]

Resp:
1: 15.5; 2: 4.9
